Recorded TGI by entry
Tested on: NCI-H226 lung
Assay: NCI tumour cell line growth inhibition, 48 h

Consider the compound shown here: CC(=O)Oc1c(C)cc2c(c1C)C(C)CN2C(C)=O (stereo not drawn) What is its recorded TGI?
> 100 µM

----------
Recorded TGI by entry
Tested on: MDA-N
Test: NCI tumour cell line growth inhibition, 48 h

Sample records with TGI:
Molecule: COC(=O)CCC1(C)C2CCC1/C(=N/O)C2 (stereo not given)
TGI: > 100 µM

Molecule: Cc1cc(Cc2c(C)c(C)c(Cc3cc(C)cc(C(C)(C)C)c3O)c(C)c2C)c(O)c(C(C)(C)C)c1
TGI: > 100 µM

Molecule: Cc1ccc(N=Nc2c(O)c(C(=O)O)cc3ccccc23)c(S(=O)(=O)O)c1
TGI: > 100 µM

Molecule: C=C[C@]1(C)CC(O)C2C(=C)C(=O)OC2[C@H]1C(=C)C=O (stereo not given in full)
TGI: 36.8 µM

Field: next molecule
Consider the molecule shown here: `OC[C@H]1C[C@@H]2Cc3ccccc3N2N1` What is its recorded TGI?
> 100 µM
